# SYSTEM NAME: UniProt P97266
# Sequence (P97266 whole entry): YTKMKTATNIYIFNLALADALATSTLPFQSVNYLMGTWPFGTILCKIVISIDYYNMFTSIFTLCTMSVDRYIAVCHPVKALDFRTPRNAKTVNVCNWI
# EXPERIMENT: Activity at mu opioid receptor by guinea pig ileum assay
MEASURED METRIC: pIC50
Value format note: pIC50 is -log10 of concentration (mol/L); just state the number.

RECORD SMILES	pIC50
Cc1cc(O)cc(C)c1C[C@H](N)C(=O)NCCCCc1nc(C)c(CCCNC(=O)[C@@H](N)Cc2c(C)cc(O)cc2C)[nH]c1=O	8.75

Now let's try a different one.
Requested read-out: pIC50. Entry: `Cc1cc(O)cc(C)c1C[C@H](N)C(=O)NCCCCc1[nH]c(=O)c(CCCNC(=O)[C@@H](N)Cc2c(C)cc(O)cc2C)nc1C`
8.31
